# Target Or System: tRNA 2'-phosphotransferase Tpt1 (Candida albicans SC5314)
# Protocol Description: tRNA 2'-phosphotransferase enzyme inhibition potency – biochemical, fluorescence polarization, dose response, late-stage follow-up (AID 2838)
# Experimental Parameters: recombinant caTpt1, RNase T1-coupled fluorescence polarization
The source made the active and inactive calls.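 The calls were made as follows: active = IC50 at or below 10 µM; inactive = IC50 above 10 µM.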
Measured IC50 by item

Observe how each entry below is paired with its result.
OC(Cn1cncn1)(Cn1cncn1)c1ccc(F)cc1F | > 49.8 µM (inactive)
NS(=O)(=O)c1cc(C(=O)NC2CCSc3ccccc32)ccc1Cl (centres undefined) | > 49.8 µM (inactive)

Could you now consider this next compound?
The compound listed as CC1=C(C#N)C(=O)N(C2CCS(=O)(=O)C2)C(=O)/C1=C\c1ccco1 (centres undefined) has a reported IC50 of > 49.8 µM (inactive)

Measured values drawn from PubChem BioAssay AID2838 for this set.
